# Test system: mice treated with aconitin
# test: animal or person
# Type: in vivo
# experimental.parameters: Mus musculus, ip, read-out: Delay in the appearance time of arrhythmia
Structures can show the parent of a compound that is named as a salt.
recorded.metric: change in vivo at 10 mg/kg (%)
The figure you give is taken to be in %; do not add the unit.

INPUT: Consider the molecule CCN(CC)C(=N)NNc1ccccc1C [Example 4, hydrochloride] and give its measured change in vivo at 10 mg/kg.
OUTPUT: 77

INPUT: Consider the molecule CC1CCCCN1C(=N)NNc1ccccc1Cl (stereo not shown) and give its measured change in vivo at 10 mg/kg.
OUTPUT: 110

INPUT: Consider the molecule Cc1cccc(C)c1OCC(C)N.Cl (stereo not shown) [Mexiletin, hydrochloride, reference compound] and give its measured change in vivo at 10 mg/kg.
OUTPUT: 7.7

INPUT: Consider the molecule CCN(CC)C(=N)NNc1ccccc1Cl [Example 3, hydrochloride] and give its measured change in vivo at 10 mg/kg.
OUTPUT: 108

----------
Assign LD50 to each entry below.
# test: in vivo
# experimental.parameters: mouse, po
Where a name gives a salt, the structure may show the parent alone.
The figure you give is taken to be in mg/kg; do not add the unit.

INPUT: Consider the compound Cc1ccccc1NNC(=N)N(C)C [Example 1, hydrochloride] and give its measured LD50.
OUTPUT: 203

INPUT: Consider the compound CN(C)C(=N)NNc1c(Cl)cccc1Cl and give its measured LD50.
OUTPUT: 220

INPUT: Consider the compound Cc1cccc(C)c1NNC(=N)N(C)C and give its measured LD50.
OUTPUT: 400

----------
Assign change in vivo at 100 mg/kg to each entry below.
# System: mice treated with aconitin
# test: animal or person
# Type: in vivo
# experimental.parameters: Mus musculus, po, read-out: Delay in the appearance time of arrhythmia
Counter-ions that a name gives are not always drawn.
The figure you give is taken to be in %; do not add the unit.

INPUT: change in vivo at 100 mg/kg of CN(C)C(=N)NNc1ccccc1 on mice treated with aconitin?
OUTPUT: 74

INPUT: change in vivo at 100 mg/kg of CN(C)C(=N)NNc1c(Cl)cccc1Cl on mice treated with aconitin?
OUTPUT: 150

INPUT: change in vivo at 100 mg/kg of Cc1ccccc1NNC(=N)N(C)C [Example 1, hydrochloride] on mice treated with aconitin?
OUTPUT: 197

INPUT: change in vivo at 100 mg/kg of Cc1ccccc1NNC(=N)N1CCCC1 on mice treated with aconitin?
OUTPUT: 137

INPUT: change in vivo at 100 mg/kg of CN(C)C(=N)NNc1ccccc1Cl on mice treated with aconitin?
OUTPUT: 70

INPUT: change in vivo at 100 mg/kg of Cc1cccc(C)c1NNC(=N)N(C)C on mice treated with aconitin?
OUTPUT: 111

INPUT: change in vivo at 100 mg/kg of Cc1cccc(C)c1OCC(C)N.Cl (stereo not shown) [Mexiletin, hydrochloride, reference compound] on mice treated with aconitin?
OUTPUT: 93
